Ref: paper PMC7894038

Target: eNP-CTD (Ebola virus nucleoprotein C-terminal domain, residues 641-739) (Zaire ebolavirus)
Assay: biochemical
Type: binding
Conditions: Site 3 Kd ± Std. Error
readout.name: Kd

Please report the measured Kd for `CNCC1CCN(Cc2cccnc2)CC1`
> 1630 µM

====

Target: eNP-CTD (Ebola virus nucleoprotein C-terminal domain, residues 641-739) (Zaire ebolavirus, UniProt P18272)
Sequence (P18272 641-739 limits assumed): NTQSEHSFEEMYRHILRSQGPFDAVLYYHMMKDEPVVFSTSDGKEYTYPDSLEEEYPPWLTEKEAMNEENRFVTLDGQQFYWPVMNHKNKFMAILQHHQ
Test: biochemical
Assay type: binding
Settings: Site 4 Kd ± Std. Error
pKd: −log10 of the molar value.
readout.name: pKd

Answer with the recorded pKd of `CNCC1CCN(Cc2cccnc2)CC1` only.
< 2.79
